ASSAY REMARKS: Metabolic stability of the compound in mouse hepatocytes assessed as parent compound remaining measured after 4 hrs
Assay type: ADME, cell-based, Hepatocyte
CONDITION SUMMARY: read-out: Stability
ENDPOINT NAME: remaining at 4 h (%)
Report only the number, with the unit % understood.

Ask | Query (molecule): "Cc1cc(N)c(S(N)(=O)=O)cc1C(=O)Nc1cc(F)c(F)c(F)c1" ; field requested: remaining at 4 h
Reply | 100

----------
ASSAY REMARKS: AUC in C57BL/6 mouse at 5 mg/kg, po and 2 mg/kg, iv
Assay type: ADME, organism-based
Design: dose 5 mg/kg, route po
CONDITION SUMMARY: in vivo
ENDPOINT NAME: AUC (µM·h)
Report only the number, with the unit µM·h understood.

Ask | Query (compound): "Cc1cc(N)c(S(N)(=O)=O)cc1C(=O)Nc1cc(F)c(F)c(F)c1" ; field requested: AUC
Reply | 33

This collection of values is drawn from ChEMBL document CHEMBL5104141.
